Quick reference: drug sensitivity score of the listed items.
- Tested on: CAL-120
- Protocol Summary: drug sensitivity score (DSS), CellTox Green (DSS (AUC-based score)); higher = stronger drug effect (viability inhibition or cytotoxicity); extreme values may be limits of the assay
- Applied Conditions: incubation time: 72 h

{"Compound": "O=NN(CCCl)C(=O)NCCCl", "System Under Test": "CAL-120", "drug sensitivity score": 0}
{"Compound": "COc1cc2c(cc1O)CC[C@@H]1[C@@H]2CC[C@]2(C)[C@@H](O)CC[C@@H]12", "System Under Test": "CAL-120", "drug sensitivity score": 0.794}
{"Compound": "CC[C@@H]1C(=O)OC[C@@H]1Cc1cncn1C", "System Under Test": "CAL-120", "drug sensitivity score": 0}
{"Compound": "Cc1ccc([N+](=O)[O-])cc1S(=O)(=O)N(C)/N=C/c1cnc2ccc(Br)cn12", "System Under Test": "CAL-120", "drug sensitivity score": 2.85}
{"Compound": "Cc1sc2c(c1C)C(c1ccc(Cl)cc1)=N[C@@H](CC(=O)OC(C)(C)C)c1nnc(C)n1-2 [(+)JQ1]", "System Under Test": "CAL-120", "drug sensitivity score": 1.56}
{"Compound": "COc1cc(F)c(F)c(Nc2ccc(I)cc2F)c1NS(=O)(=O)C1(C[C@H](O)CO)CC1", "System Under Test": "CAL-120", "drug sensitivity score": 0.239}
{"Compound": "C[C@]1(O)C[C@@H](c2nc(-c3ccc4ccc(-c5ccccc5)nc4c3)c3c(N)nccn32)C1", "System Under Test": "CAL-120", "drug sensitivity score": 0}

* * *

- System: HCC1599
- Protocol Summary: normalised response (% of control), CellTox Green; higher = less cell death (100 = DMSO, 0 = benzethonium chloride kill control)
- Applied Conditions: incubation time: 72 h

{"Compound": "C[C@]12CC[C@@H]3c4ccc(OC(=O)N(CCCl)CCCl)cc4CC[C@H]3[C@@H]1CC[C@@H]2O [Estramustine] (10000 nM)", "normalised response, %": 95}
{"Compound": "CC1=C2C[C@H]3[C@@H](CC=C4C[C@@H](O)CC[C@@]43C)[C@@H]2CC[C@]12O[C@@H]1C[C@H](C)CN[C@H]1[C@H]2C [Cyclopamine] (10000 nM)", "normalised response, %": 101}
{"Compound": "C[C@]1(O)C[C@@H](c2nc(-c3ccc4ccc(-c5ccccc5)nc4c3)c3c(N)nccn32)C1 [Linsitinib] (1000 nM)", "normalised response, %": 94.6}
{"Compound": "CC1=C2C[C@H]3[C@@H](CC=C4C[C@@H](O)CC[C@@]43C)[C@@H]2CC[C@]12O[C@@H]1C[C@H](C)CN[C@H]1[C@H]2C [Cyclopamine] (100 nM)", "normalised response, %": 104}
{"Compound": "Nc1ncn([C@@H]2O[C@H](CO)[C@@H](O)[C@H]2O)c(=O)n1 [Azacitidine] (1000 nM)", "normalised response, %": 96.4}
{"Compound": "COc1cc2c(cc1O)CC[C@@H]1[C@@H]2CC[C@]2(C)[C@@H](O)CC[C@@H]12 [2-methoxyestradiol] (10000 nM)", "normalised response, %": 89}

* * *

- Test system: MDA-MB-468
- Protocol Summary: drug sensitivity score (DSS), CellTox Green (DSS (AUC-based score)); higher = stronger drug effect (viability inhibition or cytotoxicity); extreme values may be limits of the assay
- Applied Conditions: incubation time: 72 h
Quick reference: drug sensitivity score of the listed items.
Observation Type: drug sensitivity score

{"Molecule": "CC1=C2C[C@H]3[C@@H](CC=C4C[C@@H](O)CC[C@@]43C)[C@@H]2CC[C@]12O[C@@H]1C[C@H](C)CN[C@H]1[C@H]2C", "System Under Test": "MDA-MB-468", "Observation Type": "drug sensitivity score", "Result": 0}
{"Molecule": "C[C@]12CC[C@@H]3c4ccc(OC(=O)N(CCCl)CCCl)cc4CC[C@H]3[C@@H]1CC[C@@H]2O", "System Under Test": "MDA-MB-468", "Observation Type": "drug sensitivity score", "Result": 3.38}
{"Molecule": "Cc1sc2c(c1C)C(c1ccc(Cl)cc1)=N[C@@H](CC(=O)OC(C)(C)C)c1nnc(C)n1-2 [(+)JQ1]", "System Under Test": "MDA-MB-468", "Observation Type": "drug sensitivity score", "Result": 8.47}
{"Molecule": "Oc1ncnc2[nH]ncc12", "System Under Test": "MDA-MB-468", "Observation Type": "drug sensitivity score", "Result": 0}
{"Molecule": "Nc1nc2[nH]cnc2c(=S)[nH]1", "System Under Test": "MDA-MB-468", "Observation Type": "drug sensitivity score", "Result": 0}
{"Molecule": "CC1(C)CCC(CN2CCN(c3ccc(C(=O)NS(=O)(=O)c4ccc(NCC5CCOCC5)c([N+](=O)[O-])c4)c(Oc4cnc5[nH]ccc5c4)c3)CC2)=C(c2ccc(Cl)cc2)C1", "System Under Test": "MDA-MB-468", "Observation Type": "drug sensitivity score", "Result": 13.3}
{"Molecule": "Cn1cnc2c(F)c(Nc3ccc(Br)cc3Cl)c(C(=O)NOCCO)cc21", "System Under Test": "MDA-MB-468", "Observation Type": "drug sensitivity score", "Result": 6.94}
{"Molecule": "O=C1CN2Cc3c(ccc(Cl)c3Cl)N=C2N1 [Anagrelide]", "System Under Test": "MDA-MB-468", "Observation Type": "drug sensitivity score", "Result": 0}
